Experiment: CCTE_Mundy_HCI_Cortical_NOG_NeuriteLength: CCTE's Neurite Outgrowth Assay in rat cortical cells for Neurite Length, Mundy Lab (AID 2284213)
Description: CCTE_Mundy_HCI_Cortical_NOG is a multiplexed, cell-based-readout assay that uses rat primary cortical cells with measurements taken at 50.33 hours after chemical dosing in a microplate: 96-well plate.CCTE_Mundy_HCI_Cortical_NOG_NeuriteLength is one of four components of the CCTE_Mundy_HCI_Cortical_NOG assay. It measures neurite outgrowth related to the neurite length using High Content Imaging of fluorescently labelled markers.[…] […]
Calls of active or inactive are those of the source. How the source made its calls: active means hit-call score of the fitted dose curve at least 0.9, where 1 is the maximum; inactive means score below 0.9.
Could you please pick one outcome from this set? Yes = active, No = inactive

Req: Which result was noted for this molecule in the test: CCOP(=O)(Oc1cnc(C(C)(C)C)nc1)OC(C)C (stereo not given)
Resp: No

Req: Which result was noted for this molecule in the test: Cn1nc(C(F)(F)F)c(CS(=O)(=O)C2=NOC(C)(C)C2)c1OC(F)F
Resp: Yes

Req: Which result was noted for this molecule in the test: CC1(C)[C@H](C(=O)O[C@H](C#N)c2cccc(Oc3ccccc3)c2)[C@@H]1C=C(Br)Br
Resp: No

Req: Which result was noted for this molecule in the test: CN[C@]1(c2ccccc2Cl)CCCCC1=O
Resp: No

Req: Which result was noted for this molecule in the test: Cc1ccc(OP(=O)(Oc2ccc(C)cc2)Oc2ccc(C)cc2)cc1 (tested in a mixture with another compound)
Resp: Yes

Req: Which result was noted for this molecule in the test: CC1(C)[C@@H](C=C(Cl)Cl)[C@@H]1C(=O)O[C@@H](C#N)c1ccc(F)c(Oc2ccccc2)c1
Resp: No

Req: Which result was noted for this molecule in the test: C[n+]1ccc(-c2cc[n+](C)cc2)cc1
Resp: Yes

Req: Which result was noted for this molecule in the test: C=CCN1CC[C@]23c4c5ccc(O)c4O[C@H]2C(=O)CC[C@@]3(O)[C@H]1C5
Resp: No

Req: Which result was noted for this molecule in the test: CC(=O)[O-].CC(=O)[O-].O.O.O.[Pb+2]
Resp: No

Req: Which result was noted for this molecule in the test: O=[As]O
Resp: Yes

Value source: PubChem BioAssay (EPA / NIEHS)
